# Organism: Homo sapiens
# experiment: Cytotoxic concentration required to reduce the cellular rRNA level in hepatitis C virus replicon cells
Reported CC50 values are given for each entry in this list.

| compound | unit-descriptor | relation | CC50 |
| --- | --- | --- | --- |
| OC[C@H]1OC(n2cnc3c(-c4ccc(F)cc4)ncnc32)[C@H](O)[C@@H]1O (stereo partly specified) | µM | = | 9.2 |
| OC[C@H]1OC(n2cnc3c(-c4ccccn4)ncnc32)[C@H](O)[C@@H]1O (stereo partly specified) | µM | = | 2.7 |
| Cc1ccsc1-c1ncnc2c1ncn2C1O[C@H](CO)[C@@H](O)[C@H]1O (stereo partly specified) | µM | > | 100 |
| Cn1nccc1-c1ncnc2c1ncn2C1O[C@H](CO)[C@@H](O)[C@H]1O (stereo partly specified) | µM | > | 100 |
| OC[C@H]1OC(n2cnc3c(-c4ccsc4)ncnc32)[C@H](O)[C@@H]1O (stereo partly specified) | µM | < | 0.1 |
| OC[C@H]1OC(n2cnc3c(-c4ccc(O)cc4)ncnc32)[C@H](O)[C@@H]1O (stereo partly specified) | µM | = | 5.2 |
| OC[C@H]1OC(n2cnc3c(-c4cc5ccccc5o4)ncnc32)[C@H](O)[C@@H]1O (stereo partly specified) | µM | > | 100 |
| OC[C@H]1OC(n2cnc3c(-c4ccoc4)ncnc32)[C@H](O)[C@@H]1O (stereo partly specified) | µM | = | 6.9 |
| OC[C@H]1O[C@@H](n2cnc3c(-c4cccs4)ncnc32)[C@H](O)[C@@H]1O | µM | = | 1.1 |
| OC[C@H]1OC(n2cnc3c(-c4cc[nH]c4)ncnc32)[C@H](O)[C@@H]1O (stereo partly specified) | µM | < | 0.1 |
| Cc1csc(-c2ncnc3c2ncn3C2O[C@H](CO)[C@@H](O)[C@H]2O)n1 (stereo partly specified) | µM | > | 100 |
| Cn1cccc1-c1ncnc2c1ncn2C1O[C@H](CO)[C@@H](O)[C@H]1O (stereo partly specified) | µM | > | 100 |
| Cc1csc(-c2ncnc3c2ncn3C2O[C@H](CO)[C@@H](O)[C@H]2O)c1 (stereo partly specified) | µM | = | 7 |
| C[C@@]1(O)[C@H](O)[C@@H](CO)O[C@H]1n1cnc2c(N)ncnc21 | µM | = | 15 |
| OC[C@H]1O[C@@H](n2cnc3c(-c4ccccc4)ncnc32)[C@H](O)[C@@H]1O | µM | = | 8.3 |
| OC[C@H]1OC(n2cnc3c(-c4cc[nH]n4)ncnc32)[C@H](O)[C@@H]1O (stereo partly specified) | µM | = | 0.6 |
| OC[C@H]1OC(n2cnc3c(-c4ccco4)ncnc32)[C@H](O)[C@@H]1O (stereo partly specified) | µM | = | 1.6 |
| OC[C@H]1OC(n2cnc3c(-c4nccs4)ncnc32)[C@H](O)[C@@H]1O (stereo partly specified) | µM | = | 6.7 |
| COc1ccc(-c2ncnc3c2ncn3C2O[C@H](CO)[C@@H](O)[C@H]2O)cc1 (stereo partly specified) | µM | < | 10 |
| OC[C@H]1OC(n2cnc3c(-c4ccc(Cl)cc4)ncnc32)[C@H](O)[C@@H]1O (stereo partly specified) | µM | > | 100 |
| Cc1cc(-c2ncnc3c2ncn3C2O[C@H](CO)[C@@H](O)[C@H]2O)on1 (stereo partly specified) | µM | > | 100 |

These measurements were taken from ChEMBL document CHEMBL1141079.
